Each recorded value in this set is attributed to ChEMBL document CHEMBL1142749.

experimentalProtocol: Oral bioavailability (i.v. administration)
Format: ADME, organism-based
recordedConditions: rat, in vivo
experimentalEndpoint: bioavailability (%)

{"columns": ["compound", "experimentalEndpoint", "endpointResult"],
 "data": [
  ["CCCC[C@H](NC(=O)O[C@H](CN1CCN(c2ccc(C(F)(F)F)cc2)C1=O)C(C)(C)C)C(=O)C(=O)Nc1ccn[nH]1", "bioavailability", 27],
  ["CCCC[C@H](NC(=O)O[C@H](Cn1cnc(-c2ccc(C(F)(F)F)cc2)c1)C(C)(C)C)C(=O)C(=O)Nc1ccn[nH]1", "bioavailability", 55],
  ["CCCC[C@H](NC(=O)OC(Cc1nnc(-c2ccc(F)cc2)o1)C(C)(C)C)C(=O)C(=O)N[C@H]1CCCNC1=O (stereo not given in full)", "bioavailability", 17],
  ["CCCC[C@H](NC(=O)O[C@H](Cc1nnc(-c2ccc(C(F)(F)F)cc2)o1)C(C)(C)C)C(=O)C(=O)NN1CCOC1=O", "bioavailability", 79],
  ["CCCC[C@H](NC(=O)O[C@H](Cc1nnc(-c2ccc(F)cc2)o1)C(C)(C)C)C(=O)C(=O)NCc1cccnc1", "bioavailability", 46]
]}
